test system: SEM cells; experiment: AUC of viability dose-response curve (% viability x log10 dose units); higher = less sensitive; conditions: RPMI 5 mM glucose + 10% FBS; 48 h
Mark rule met only for AUC of viability dose-response curve values smaller than 400; exact matches and larger values are rule not met.

{"columns": ["compound", "cat"],
 "data": [
  ["CN1CC[C@H]([C@@H](O)C1)C2=C(O)C=C(O)C3=C2O\\C(=C/C3=O)C4=CC=CC=C4Cl", "rule met"]
]}

Okay, next one:
Input line: Dear reviewer, please state whether `C[C@@H]1CC[C@@]2(CC[C@]3(C)\C(=C/C[C@@H]4[C@@]5(C)CC[C@H](O)C(C)(C)[C@@H]5CC[C@@]34C)[C@@H]2[C@H]1C)C(O)=O` has AUC of viability dose-response curve strictly beneath 400.
Output line: rule not met

* * *

test system: P12-Ichikawa; test: AUC of viability dose-response curve (% viability x log10 dose units); higher = less sensitive; details: HPLM + 10% dialyzed FBS; 48 h
metric: AUC of viability dose-response curve
One number for each entry.

Sample answers from the record:
{"columns": ["record smiles", "target under test", "metric", "value observed"],
 "data": [
  ["COc1cc(C(=O)NC2CCN(C)CC2)ccc1Nc1ncc2c(n1)N(C1CCCC1)CCC(=O)N2C(C)C", "P12-Ichikawa", "AUC of viability dose-response curve", 406],
  ["C[C@@H]1[C@H]\\2[C@H](O)[C@H]3[C@H](N(C)C)\\C(=C(C(N)=O)/C(=O)[C@@]3(O)\\C(=C2C(=O)C4=C(O)C=CC=C14)O)O", "P12-Ichikawa", "AUC of viability dose-response curve", 473],
  ["Nc1nc(F)nc2c1ncn2[C@@H]1O[C@H](COP(=O)(O)O)[C@@H](O)[C@@H]1O", "P12-Ichikawa", "AUC of viability dose-response curve", 448]
]}

Okay, next one:
Input line: Reported AUC of viability dose-response curve for P12-Ichikawa, given `Cc1ccc2nc(NCCN)c3ncc(C)n3c2c1` ?
Output line: 458

* * *

tested on: SEM cells; experiment: cell viability relative to DMSO control; higher = less cytotoxic; details: RPMI 5 mM glucose + 10% FBS; 48 h; 0.00702 µM
metric: cell viability (%)
Numbers only, in %.

Worked set:
{"columns": ["compound", "unit label", "cell viability"],
 "data": [
  ["CO[C@H]1/C=C/O[C@@]2(C)Oc3c(C)c(O)c4c(c3C2=O)C2=NC3(CCN(CC(C)C)CC3)NC2=C(NC(=O)/C(C)=C/C=C/[C@H](C)[C@H](O)[C@@H](C)[C@@H](O)[C@@H](C)[C@H](OC(C)=O)[C@@H]1C)C4=O", "%", 133],
  ["CNC(=O)c1ccc2c(c1)NC(=O)/C2=C(\\Nc1cccc(CN(C)C)c1)c1ccccc1", "%", 97.3],
  ["Clc2cccc(Cl)c2\\N=C1/NCCN1", "%", 9.62],
  ["CC(C(C)N1CC(=O)NC(=O)C1)N1CC(=O)NC(=O)C1 (stereo not given)", "%", 101],
  ["Cc1ccc(C(=O)Nc2cccc(C(F)(F)F)c2)cc1Nc1nc(-c2cccnc2)nc2c1cnn2C", "%", 104]
]}

Batch lookup, cell viability per entry.
1. Cc1ccc(Nc2cc(-c3cccc(N4C(=O)c5ccccc5C4=O)c3)ncn2)cc1N[S+](C)(=O)[O-]
2. C[C@@H]1CC[C@@]2(CC[C@]3(C)\C(=C/C[C@@H]4[C@@]5(C)CC[C@H](O)C(C)(C)[C@@H]5CC[C@@]34C)[C@@H]2[C@H]1C)C(O)=O
3. CC1(C)CC\C2=C(/O1)C3=C(C=CC=C3)C(=O)C2=O

Output line:
1: 137; 2: 108; 3: 94.1

Return reported cell viability values for all items listed beneath this line.
1. C[C@H](NC(=O)Cc1cc(F)cc(F)c1)C(=O)N[C@H](C(=O)OC(C)(C)C)c1ccccc1
2. C[C@]12CCC3c4ccc(O)cc4CCC3C1CCC2=O (stereo not given in full)

Output line:
1. 98.3
2. 96.3
